B1: SFRS1 (parent)
chain: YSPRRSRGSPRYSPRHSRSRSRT

- Variants of: B1
- assay-protocol: protein stability index of a GFP-peptide fusion (GPS, HEK-293T) (PSI 1-6); higher = more stable;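 further: lentivirally expressed fusions sorted by FACS into six bins by GFP to DsRed ratio, PSI derived from sequencing read proportions per bin multiplied by bin number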
- test-conditions: c terminus: native
quantity-measured: protein stability index
Answers are plain numbers.

Examples with their reported protein stability index follow.
[[record]]
mutant_designation = "S13R"
observed_result = 4.11

[[record]]
mutant_designation = "S17Q"
observed_result = 4

[[record]]
mutant_designation = "R18N"
observed_result = 3.5

[[record]]
mutant_designation = "S13F"
observed_result = 3.59

[[record]]
mutant_designation = "T23F"
observed_result = 4.22

[[record]]
mutant_designation = "Y1I"
observed_result = 4.17

[[record]]
mutant_designation = "S6P"
observed_result = 4.39

[[record]]
mutant_designation = "S9E"
observed_result = 3.71


Look at each variant and report its protein stability index.
1. S19D
2. P3S
3. R20T
4. R22H
5. Y1R
6. S2E

Outgoing:
3.75
4.21
3.6
4.14
5.25
4.12

Look at each variant and report its protein stability index.
1. R11S
2. S9R
3. Y12S
4. T23R
5. R20H
6. H16E

Outgoing:
[3.3, 4.37, 4.17, 4.22, 4.12, 3.47]

The origin of these recorded values is the supplement of paper PMC10567573.
